Measured values drawn from ChEMBL document CHEMBL4351028 for this set.

Reported cytotoxicity at 2 h, up to 25 µM by item:
assay: Cytotoxicity against HEK293 cells harbouring ABCG2-482-T7 mutant assessed as inhibition of cell viability at 5 to 25 uM incubated for 2 hrs by MTT assay relative to control; format: ADME, cell-based; conditions: human, read-out: INH

Recorded cytotoxicity at 2 h, up to 25 µM (compound COc1ccc(C(=O)c2c[nH]c3ccc(OC)cc23)cc1 ): < 20%

Summary for this compound, COc1ccc(C(=O)c2ccc3[nH]cc(C(=O)c4ccc(OC)cc4)c3c2OC)cc1 : cytotoxicity at 2 h, up to 25 µM is < 20%

---

Molecular target: ABCG2 (Homo sapiens)
Sequence (Q9UNQ0 whole entry): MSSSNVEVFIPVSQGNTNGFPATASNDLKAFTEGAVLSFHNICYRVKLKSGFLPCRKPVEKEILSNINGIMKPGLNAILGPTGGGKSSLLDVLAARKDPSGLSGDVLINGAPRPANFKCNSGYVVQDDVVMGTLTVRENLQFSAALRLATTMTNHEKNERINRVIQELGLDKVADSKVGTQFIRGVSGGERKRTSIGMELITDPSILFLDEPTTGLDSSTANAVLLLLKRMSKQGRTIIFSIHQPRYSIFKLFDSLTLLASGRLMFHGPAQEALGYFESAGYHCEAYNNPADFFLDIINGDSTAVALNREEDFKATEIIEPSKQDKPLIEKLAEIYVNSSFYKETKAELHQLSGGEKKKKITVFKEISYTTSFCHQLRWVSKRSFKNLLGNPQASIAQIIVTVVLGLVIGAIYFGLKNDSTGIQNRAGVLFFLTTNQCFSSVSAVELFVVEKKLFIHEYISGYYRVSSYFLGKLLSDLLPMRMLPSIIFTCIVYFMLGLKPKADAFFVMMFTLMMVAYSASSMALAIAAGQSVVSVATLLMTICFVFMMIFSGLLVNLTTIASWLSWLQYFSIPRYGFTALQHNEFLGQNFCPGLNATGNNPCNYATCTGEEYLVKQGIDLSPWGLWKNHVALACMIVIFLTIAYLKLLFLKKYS
Experiment: Competitive substrate activity at ABCG2 (unknown origin) expressed in High Five insect cell vesicle membrane assessed as stimulation of ATPase activity at 0.75 uM by PREDEASY ATPase assay relative to control
Conditions: High Five insect cell vesicle membranes expressing ABCG2
recorded.metric: Emax at 0.75 µM (%)
Report the figure in % without appending any unit label.

// sample COc1ccc(C(=O)c2c[nH]c3ccc(OC)cc23)cc1 , its Emax at 0.75 µM was 50

---

Catalogue of compounds with associated cytotoxicity at 2 h, up to 25 µM
experiment: Cytotoxicity against human NCI-H460 cells assessed as inhibition of cell viability at 5 to 25 uM incubated for 2 hrs by MTT assay relative to control; type: cell-based; conditions: read-out: INH

COc1ccc(C(=O)c2c[nH]c3ccc(OC)cc23)cc1 | < 20%

Now consider a different compound.
According to the records, this compound COc1ccc(C(=O)c2ccc3[nH]cc(C(=O)c4ccc(OC)cc4)c3c2OC)cc1 displays cytotoxicity at 2 h, up to 25 µM of < 20%

---

tested on: NCI-H460; assay: Cytotoxicity against human NCI-H460 cells assessed as concentration that causes inhibition of cell viability by <=20% incubated for 24 hrs by MTT assay; format: cell-based; conditions: nci-h460, 24 h
# Lookup of reported Activity keyed by entry
Give the number; µM is assumed, so skip it.

get_value(item= O=C(c1cc(O)c(O)c(O)c1)c1c[nH]c2cccc(O)c12 , readout=Activity) returns 25

GET /value?item= COc1ccc2[nH]cc(C(=O)c3cc(OC)c(OC)c(OC)c3)c2c1 &field=Activity returns 1

// Activity value for COc1ccc(C(=O)c2c[nH]c3cccc(OC)c23)cc1 : 10

response.value for COc1ccc(C(=O)c2c[nH]c3ccc(OC)cc23)cc1 (field: Activity) = 10

The compound listed as O=C(c1cccc(O)c1)c1c[nH]c2ccc(O)cc12 has a reported Activity of 25

Memo: COc1ccc(C(=O)c2c[nH]c3c(OC)cccc23)c(OC)c1 , reported Activity: 10
